Recorded values, source patent US11453683B1.

- System: KRas G12D-mediated phosphorylation of ERK
- Method description: Inhibition of KRas G12D-mediated phosphorylation of ERK in AGS cells
- Type: cell-based
- Test context: Homo sapiens; AGS cells expressing G12D, 3 hours, phospho-ERK normalized to GAPDH
I'd appreciate it if you could supply pIC50 values for the items below.
Just so you know, pIC50 here is -log10 of the concentration in molar units; reply with that number alone.

Reported pIC50 of Oc1cc(-c2ncc3c(N4C[C@H]5CC[C@@H](C4)N5)nc(OC4CCOCC4)nc3c2F)c2ccccc2c1 : 5.14

Looking up Nc1nc(N2CC3CCC(C2)N3)c2cnc(-c3cc(O)cc4ccccc34)c(F)c2n1 , I found its pIC50 recorded as 4.87

The reported value for Oc1cc(-c2ncc3c(N4C[C@H]5CC[C@@H](C4)N5)nc(OCC45CCCN4CCC5)nc3c2F)c2ccccc2c1 [Example 109, bis(2,2,2-trifluoroacetate)] in terms of pIC50 is 6.48

The recorded pIC50 for entry OCc1cccc2cccc(-c3ncc4c(N5C[C@H]6CC[C@@H](C5)N6)nc(OCC56CCCN5CCC6)nc4c3F)c12 equals 5.33

So, Oc1cc(-c2ncc3c(N4C[C@H]5CC[C@@H](C4)N5)nc(OCC45CCCN4CCC5)nc3c2F)c2c(F)cccc2c1 [Example 367, tris(2,2,2-trifluoroacetate)] ? Its pIC50 was 6.95

###

- Test system: KRas G12D-mediated phosphorylation of ERK
- Method description: Inhibition of KRas G12D-mediated phosphorylation of ERK in AGS cells
- Type: cell-based
- Test context: Homo sapiens; AGS cells expressing G12D, 3 hours, phospho-ERK normalized to GAPDH
- Description: Cells were plated in tissue culture treated 96 well plates at a density of 40,000 cells/well and allowed to attach for 12-14 hours. Diluted compounds were then added in a final concentration of 0.5% DMSO. After 3 hours, the medium was removed, 150 μL of 4.0% formaldehyde was added and the plates incubated at room temperature for 20 minutes. […] The amount of phospho-ERK was determined using an antibody specific for the phosphorylated form of ERK and compared to the amount of GAPDH. […]
Where a name gives a salt, the structure may show the parent alone.
Each entry falls into one class according to its IC50; the ranges are bin A (below 0.8 µM), bin B (0.8 µM to below 4 µM), bin C (4 µM or more)

input: Which IC50 band matches Oc1cc(-c2ncc3c(N4C[C@H]5CC[C@@H](C4)N5)nc(OC[C@@H]4CCCN4Cc4ccccc4)nc3c2F)c2ccccc2c1 ?
output: bin C

input: Category of C#Cc1cccc2cc(O)cc(-c3ncc4c(N5C[C@H]6CC[C@@H](C5)N6)ncnc4c3F)c12 :
output: bin A

input: # bin label for O[C@@H]1C[C@@H]2CN(c3nc(N4CCC4)nc4c(F)c(-c5cccc6cccc(Cl)c56)ncc34)C[C@H]1N2
output: bin C

input: Place this molecule in its band: CC(=O)N1CCC(Oc2nc(N3C[C@H]4CC[C@@H](C3)N4)c3cnc(-c4cc(O)cc5ccccc45)c(F)c3n2)CC1
output: bin C

input: Record Cn1nccc1COc1nc(N2C[C@H]3CC[C@@H](C2)N3)c2cnc(-c3cc(O)cc4ccccc34)c(F)c2n1 — which class?
output: bin C

input: Class for CSc1cccc2cccc(-c3ncc4c(N5C[C@H]6CC[C@@H](C5)N6)nc(OCC56CCCN5CCC6)nc4c3F)c12 ?
output: bin A

input: Categorize the following entry: C#Cc1c(F)ccc2cccc(-c3ncc4c(N5C[C@H]6CC[C@@H](C5)N6)nc(OC[C@@]56CCCN5C[C@H](F)C6)nc4c3F)c12
output: bin A

input: Field: class (IC50) — entry: CN1CCC[C@H]1COc1nc(N2CC3CCC(C2)N3)c2cnc(-c3c(Cl)c(O)cc4ccccc34)c(F)c2n1
output: bin B

input: Consider CN1CCC[C@H]1COc1nc(N2C[C@H]3CC[C@@H](C2)N3)c2cnc(-c3cccc4c3C3(CC4)CC3)c(F)c2n1 [Example 162, bis(2,2,2-trifluoroacetate)] . To which IC50 class does it belong?
output: bin C

input: Any idea which band CCC#Cc1cccc2cccc(-c3ncc4c(N5C[C@H]6CC[C@@H](C5)N6)nc(OCC56CCCN5CCC6)nc4c3F)c12 is in?
output: bin C

input: Class? Entry: Oc1ccc(OC(F)(F)F)c(-c2ncc3c(N4C[C@H]5CC[C@@H](C4)N5)nc(OCC45CCCN4CCC5)nc3c2F)c1
output: bin B

input: Tag the class for C[C@@H]1C[C@@H]1c1ccccc1-c1ncc2c(N3C[C@H]4CC[C@@H](C3)N4)nc(OCC34CCCN3CCC4)nc2c1F
output: bin B

input: Quick check: band for Cc1ccc2cccc(-c3ncc4c(N5C[C@H]6CC[C@@H](C5)N6)nc(OC[C@@H]5CCCN5C)nc4c3F)c2c1
output: bin C

input: GET /class?item= CO[C@@H]1C[C@@H](COc2nc(N3C[C@H]4CC[C@@H](C3)N4)c3cnc(-c4cc(O)cc5ccccc45)c(F)c3n2)N(C)C1
output: bin A

input: Input C[C@H]1CN2CCC[C@@]2(COc2nc(N3CC4CCC(C3)N4)c3cnc(-c4cccc5cccc(Cl)c45)c(F)c3n2)C1 (stereo in doubt) [Example 227, bis-hydrochloride] ; output its category
output: bin B

input: Band of O=C(CCl)N1CCC(Oc2nc(N3C[C@H]4CC[C@@H](C3)N4)c3cnc(-c4cccc5cccc(Cl)c45)c(F)c3n2)CC1 [Example 163, bis(2,2,2-trifluoroacetate)] ?
output: bin C

input: Could you place OCC(CO)COc1nc(N2C[C@H]3CC[C@@H](C2)N3)c2cnc(-c3cccc4cccc(Cl)c34)c(F)c2n1 in its proper category? Many thanks.
output: bin C

input: Just checking, what class would you give C#Cc1c(F)ccc2cccc(-c3ncc4c(N5C[C@H]6CC[C@@H](C5)N6)nc(OCC56CCCN5CCC6)nc4c3F)c12 here?
output: bin A

input: Kindly state the category for this molecule: Cn1cncc1CCOc1nc(N2C[C@H]3CC[C@@H](C2)N3)c2cnc(-c3cc(O)cc4ccccc34)c(F)c2n1
output: bin C

input: Where would Oc1cc(-c2ncc3c(N4C[C@H]5CC[C@@H](C4)N5)nc(OC[C@@H]4CC5CCN4C5)nc3c2F)c2ccccc2c1 land among the classes by reported IC50?
output: bin C

input: Form field 'band' for CCC1(N)CN(c2nc(N3C[C@H]4CC[C@@H](C3)N4)c3cnc(-c4cc(O)cc5ccccc45)c(F)c3n2)C1
output: bin B

input: Place this molecule in its band: Fc1cccc(-c2ncc3c(N4C[C@H]5CC[C@@H](C4)N5)nc(OCC45CCCN4CCC5)nc3c2F)c1C(F)(F)F
output: bin B

input: Bin? Oc1cc(-c2ncc3c(N4C[C@H]5CC[C@@H](C4)N5)nc(OCCC(F)(F)F)nc3c2F)c2ccccc2c1
output: bin C

input: For this molecule, which bin applies? COc1nc(N2C[C@H]3CC[C@@H](C2)N3)c2cnc(-c3cc(O)cc4cccc(Cl)c34)c(F)c2n1
output: bin C
